Values from patent US4436732A

# Method Summary: acute toxicity and tolerance
# Design: species or system white mice, rats, guinea pigs and dogs
# Details: in vivo, sc; hypodermal
Experimental Readout: LD50

Prompt line: Quick one: LD50 for O=c1c2cc(O)c(O)cc2oc2cc(O)c([C@@H]3O[C@H](CO)[C@@H](O)[C@H](O)[C@H]3O)c(O)c12 [active principle] ?
Response line: > 5000 mg/kg

###

# Method Summary: acute toxicity and tolerance
# Design: species or system white mice, rats, guinea pigs and dogs
# Details: in vivo, ip; intraperitoneal
Experimental Readout: LD50

Prompt line: Quick one: LD50 for O=c1c2cc(O)c(O)cc2oc2cc(O)c([C@@H]3O[C@H](CO)[C@@H](O)[C@H](O)[C@H]3O)c(O)c12 ?
Response line: 3000 to 4000 mg/kg
